Molecular target: CAAX prenyl protease 1 homolog (Mus musculus, UniProt Q80W54)
Sequence (Q80W54 whole entry): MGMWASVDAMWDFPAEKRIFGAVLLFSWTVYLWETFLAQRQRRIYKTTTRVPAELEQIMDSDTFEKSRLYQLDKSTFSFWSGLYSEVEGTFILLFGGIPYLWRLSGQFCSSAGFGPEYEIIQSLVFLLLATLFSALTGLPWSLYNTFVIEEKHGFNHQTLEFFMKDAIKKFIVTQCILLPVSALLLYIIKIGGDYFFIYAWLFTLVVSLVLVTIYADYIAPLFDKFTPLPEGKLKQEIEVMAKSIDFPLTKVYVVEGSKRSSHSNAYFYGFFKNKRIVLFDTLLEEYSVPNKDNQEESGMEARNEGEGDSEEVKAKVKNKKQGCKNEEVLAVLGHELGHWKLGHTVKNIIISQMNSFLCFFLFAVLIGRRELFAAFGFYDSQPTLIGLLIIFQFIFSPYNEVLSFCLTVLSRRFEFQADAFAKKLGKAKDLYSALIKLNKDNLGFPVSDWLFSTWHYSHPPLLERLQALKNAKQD
Experiment: Inhibition of mouse ZMPSTE24 expressed n delta ste24 delta rce1 yeast
pIC50: −log10 of the molar value.
measurement name: pIC50

(1) Cc1cccc(C)c1OCC(=O)N[C@@H](Cc1ccccc1)[C@@H](O)C[C@H](Cc1ccccc1)NC(=O)[C@H](C(C)C)N1CCCNC1=O [LOPINAVIR]
(2) CCC[C@@]1(CCc2ccccc2)CC(O)=C([C@H](CC)c2cccc(NS(=O)(=O)c3ccc(C(F)(F)F)cn3)c2)C(=O)O1 [TIPRANAVIR]
Request: Lowest pIC50? choose 1 or 2 Pick one and reply with its label.
Response: 1
(1: 4.74, 2: 5.92)

----------
tested on: HeLa; assay: Toxicity in human HeLa cells transfected with GFP-prelamin A construct assessed as accumulation of uncleaved protein at 20 uM by Western blot; assay type: cell-based
measurement name: Activity

[[record]]
smiles = "COC(=O)N[C@H](C(=O)N[C@@H](Cc1ccccc1)[C@@H](O)CN(Cc1ccc(-c2ccccn2)cc1)NC(=O)[C@@H](NC(=O)OC)C(C)(C)C)C(C)(C)C"
experimental_value = "Toxic"

[[record]]
smiles = "Cc1cn([C@H]2C=C[C@@H](CO)O2)c(=O)[nH]c1=O"
experimental_value = "Non-toxic"

[[record]]
smiles = "Cc1ccnc2c1NC(=O)c1cccnc1N2C1CC1"
experimental_value = "Non-toxic"

[[record]]
smiles = "Cc1cccc(C)c1OCC(=O)N[C@@H](Cc1ccccc1)[C@@H](O)C[C@H](Cc1ccccc1)NC(=O)[C@H](C(C)C)N1CCCNC1=O"
experimental_value = "Toxic"


Where these numbers come from: ChEMBL document CHEMBL1147053
